biological target: collagen (Gallus gallus, UniProt P02457+P02467); construct: collagen obtained by grinding and deliming the bone of a spring chicken; from tissue; host or cells: bone of a spring chicken, ground and delimed (demineralised); assay type: biochemical, spring chicken; conditions: silicon compound 0.05 %; collagen 100 mg, glucose 0.2 M, pH 7.4, 37 C, 4 weeks
Sequence (P02467 78-1363): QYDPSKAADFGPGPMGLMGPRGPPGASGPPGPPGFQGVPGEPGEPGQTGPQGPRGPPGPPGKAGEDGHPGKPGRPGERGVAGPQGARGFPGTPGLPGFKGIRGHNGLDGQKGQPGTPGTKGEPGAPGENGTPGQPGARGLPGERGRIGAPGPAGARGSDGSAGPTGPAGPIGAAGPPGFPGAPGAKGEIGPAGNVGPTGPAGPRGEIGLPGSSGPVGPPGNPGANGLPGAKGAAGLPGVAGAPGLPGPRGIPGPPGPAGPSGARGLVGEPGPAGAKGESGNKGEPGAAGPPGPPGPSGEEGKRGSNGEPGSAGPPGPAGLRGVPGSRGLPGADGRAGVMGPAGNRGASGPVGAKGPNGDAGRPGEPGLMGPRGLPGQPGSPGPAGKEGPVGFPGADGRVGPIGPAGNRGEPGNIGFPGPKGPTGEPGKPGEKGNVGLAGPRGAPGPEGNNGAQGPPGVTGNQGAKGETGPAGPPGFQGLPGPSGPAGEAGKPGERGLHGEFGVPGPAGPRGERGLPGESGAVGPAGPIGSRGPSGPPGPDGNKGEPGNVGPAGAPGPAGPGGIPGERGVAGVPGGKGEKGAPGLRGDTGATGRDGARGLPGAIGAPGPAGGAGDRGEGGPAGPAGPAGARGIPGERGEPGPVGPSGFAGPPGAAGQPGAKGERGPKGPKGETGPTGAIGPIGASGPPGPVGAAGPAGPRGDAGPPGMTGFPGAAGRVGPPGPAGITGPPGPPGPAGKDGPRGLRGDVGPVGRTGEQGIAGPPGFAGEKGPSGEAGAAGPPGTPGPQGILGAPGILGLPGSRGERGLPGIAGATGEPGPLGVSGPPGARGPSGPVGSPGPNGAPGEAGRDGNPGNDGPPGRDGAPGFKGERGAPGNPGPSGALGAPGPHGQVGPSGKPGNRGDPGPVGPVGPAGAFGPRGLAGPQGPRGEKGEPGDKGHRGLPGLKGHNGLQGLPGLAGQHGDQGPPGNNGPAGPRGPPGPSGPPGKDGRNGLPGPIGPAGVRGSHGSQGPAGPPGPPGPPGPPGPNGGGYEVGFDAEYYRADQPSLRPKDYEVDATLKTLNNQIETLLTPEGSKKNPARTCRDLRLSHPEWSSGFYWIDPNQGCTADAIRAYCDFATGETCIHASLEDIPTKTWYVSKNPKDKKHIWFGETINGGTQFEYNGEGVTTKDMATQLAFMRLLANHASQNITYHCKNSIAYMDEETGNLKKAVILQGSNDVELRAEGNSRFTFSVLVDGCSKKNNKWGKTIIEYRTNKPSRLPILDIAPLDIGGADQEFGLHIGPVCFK
Sequence (P02457 152-1207): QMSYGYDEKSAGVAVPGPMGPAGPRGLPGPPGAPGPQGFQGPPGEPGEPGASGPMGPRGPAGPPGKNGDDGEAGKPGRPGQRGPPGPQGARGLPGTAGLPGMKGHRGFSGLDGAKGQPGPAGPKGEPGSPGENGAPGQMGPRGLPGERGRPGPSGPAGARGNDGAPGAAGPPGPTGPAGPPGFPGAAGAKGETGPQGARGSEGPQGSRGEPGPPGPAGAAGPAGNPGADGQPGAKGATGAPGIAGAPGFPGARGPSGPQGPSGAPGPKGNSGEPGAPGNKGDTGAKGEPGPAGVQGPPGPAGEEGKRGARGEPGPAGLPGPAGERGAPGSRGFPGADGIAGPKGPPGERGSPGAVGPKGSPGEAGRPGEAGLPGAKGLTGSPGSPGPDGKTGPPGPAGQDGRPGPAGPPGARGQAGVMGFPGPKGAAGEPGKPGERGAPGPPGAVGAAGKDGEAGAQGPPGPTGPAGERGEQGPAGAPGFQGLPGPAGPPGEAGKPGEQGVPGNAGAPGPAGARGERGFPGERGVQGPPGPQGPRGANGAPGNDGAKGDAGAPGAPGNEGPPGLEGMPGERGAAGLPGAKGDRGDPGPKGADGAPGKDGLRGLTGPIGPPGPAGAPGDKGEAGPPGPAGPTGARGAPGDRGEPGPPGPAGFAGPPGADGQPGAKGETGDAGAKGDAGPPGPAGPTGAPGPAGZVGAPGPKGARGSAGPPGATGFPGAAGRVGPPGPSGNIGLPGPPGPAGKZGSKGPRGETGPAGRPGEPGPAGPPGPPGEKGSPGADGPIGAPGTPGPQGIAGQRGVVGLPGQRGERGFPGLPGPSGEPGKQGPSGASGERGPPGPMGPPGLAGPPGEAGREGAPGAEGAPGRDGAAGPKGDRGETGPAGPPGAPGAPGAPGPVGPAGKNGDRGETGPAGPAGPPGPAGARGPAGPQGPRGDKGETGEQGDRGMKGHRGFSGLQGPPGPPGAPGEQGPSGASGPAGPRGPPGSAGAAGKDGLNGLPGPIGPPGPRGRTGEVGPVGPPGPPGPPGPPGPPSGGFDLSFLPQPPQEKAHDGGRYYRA
valueType: Portion A/ portion B

{"testSmiles": "O[Si](O)(O)c1ccccc1", "experimentalSystem": "collagen (Gallus gallus, UniProt P02457+P02467)", "valueType": "Portion A/ portion B", "measuredNumber": 0.41}
{"testSmiles": "O[Si](O)(O)C1CCCCC1", "experimentalSystem": "collagen (Gallus gallus, UniProt P02457+P02467)", "valueType": "Portion A/ portion B", "measuredNumber": 0.45}
{"testSmiles": "C[Si](O)(O)O[Si](C)(O)O", "experimentalSystem": "collagen (Gallus gallus, UniProt P02457+P02467)", "valueType": "Portion A/ portion B", "measuredNumber": 0.40}
{"testSmiles": "CCCCCCCCCCCC[Si](O)(O)O", "experimentalSystem": "collagen (Gallus gallus, UniProt P02457+P02467)", "valueType": "Portion A/ portion B", "measuredNumber": 0.44}

----------
biological target: collagen (Gallus gallus, UniProt P02457+P02467); construct: collagen obtained by grinding and deliming the bone of a spring chicken; from tissue; host or cells: bone of a spring chicken, ground and delimed (demineralised); type: biochemical, spring chicken; settings: silicon compound 0.01 %; collagen 100 mg, glucose 0.2 M, pH 7.4, 37 C, 4 weeks; solubilized by cutting with CNBr
Listed here are compounds together with their documented Soluble collagen (%).

{"compound": "C[Si](O)(O)O[Si](C)(O)O [Dimer of methyl silnetriol]", "Soluble collagen (%)": 80}
{"compound": "O[Si](O)(O)c1ccccc1 [Phenyl silanetriol]", "Soluble collagen (%)": 70}
{"compound": "CCCCCCCCCCCC[Si](O)(O)O [Dodecyl silanetriol, dodecyl silanetriol]", "Soluble collagen (%)": 68}
{"compound": "O[Si](O)(O)C1CCCCC1 [Cyclohexyl silanetriol, cyclohexyl silanetriol]", "Soluble collagen (%)": 68}
{"compound": "CC=C[Si](O)(O)O [Propenyl silanetriol, propenyl silanetriol]", "Soluble collagen (%)": 71}
